Read-out: CYP3A5 (gene 1577)
Test details: LTEA_HepaRG_CYP3A5: Life Technologies and Expression Analysis (LTEA) Assay for CYP3A5 using HepaRG (AID 2283493)
Protocol conditions: mRNA level, 48 h; actives raise or lower the signal
The source made the active and inactive calls. Rule for the calls: active = hit-call score of the fitted dose curve at least 0.9, where 1 is the maximum; inactive = score below 0.9.
Assay endpoint: outcome

1) CNCc1ccc(NC(=O)c2c[nH]c3c2C(=O)CCC3)cc1 = inactive
2) O=P(OC(CCl)CCl)(OC(CCl)CCl)OC(CCl)CCl = inactive
3) O=C(O)c1cccc(Oc2ccccc2)c1 = inactive
4) O=C(O)CC(O)C(=O)O (centres undefined) = inactive

----------
Read-out: CYP3A5 (gene 1577)
Test details: LTEA_HepaRG_CYP3A5: Life Technologies and Expression Analysis (LTEA) Assay for CYP3A5 using HepaRG (AID 2283493)
Protocol conditions: mRNA level, 48 h; actives raise or lower the signal
Method: LTEA_HepaRG is a cell based, multiplexed-readout assay that uses HepaRG, a human liver cell line, with measurements taken at 48 hours after chemical dosing on a 96-well plate.LTEA_HepaRG_CYP3A5 is one of 102 assay component(s) measured in the LTEA HepaRG cell culture assay. It is a marker of NR mediated metabolism.Data from the assay component LTEA_HepaRG_CYP3A5 was analyzed into 1 endpoint. […]
Activity calls are given as the source filed them. How the source made its calls: active means hit-call score of the fitted dose curve at least 0.9, where 1 is the maximum; inactive means score below 0.9.
Labels: active, inactive

1) Nc1nc2ncc(CNc3ccc(C(=O)N[C@@H](CCC(=O)O)C(=O)O)cc3)nc2c(=O)[nH]1 = inactive
2) CCCC(=O)OCC = inactive
3) CCOc1cccc(-n2cc(C(=O)N3CCN(c4cc(C(=O)O)c5ccccc5c4)CC3)nc2-c2ccc(C)cc2)c1 = active
4) O=C1CCCCCN1 = inactive
5) CCc1cc(SCc2sc(-c3ccc(C(F)(F)F)cc3)nc2CN2CCN(c3ccc(OC)cc3)CC2)ccc1OCC(=O)O = active
6) CCCCCCCCO = inactive

----------
System tested: human Serotonin, 5-Hydroxytryptamine Receptor 5A (5HT5A), HTR5A (gene 3361) (UniProt P47898)
Sequence (P47898 whole entry, looked up): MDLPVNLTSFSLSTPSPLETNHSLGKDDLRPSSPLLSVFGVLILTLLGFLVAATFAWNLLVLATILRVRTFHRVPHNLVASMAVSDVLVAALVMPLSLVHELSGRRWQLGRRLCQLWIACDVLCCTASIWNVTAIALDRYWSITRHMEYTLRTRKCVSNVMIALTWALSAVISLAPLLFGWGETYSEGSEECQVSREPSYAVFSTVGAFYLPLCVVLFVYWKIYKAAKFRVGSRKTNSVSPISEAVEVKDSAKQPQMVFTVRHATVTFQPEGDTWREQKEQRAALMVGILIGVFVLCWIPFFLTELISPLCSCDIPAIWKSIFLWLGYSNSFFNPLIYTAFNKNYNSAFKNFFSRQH
Test details: NVS_GPCR_h5HT5A: NovaScreen (NVS) G Protein-Coupled Receptor Assay for human Serotonin, 5-Hydroxytryptamine Receptor 5A (5HT5A) (AID 2283251)
Protocol: NVS_GPCR_h5HT5A is a biochemical, single-readout assay that uses extracted gene-proteins from HEK293 in a cell-free assay. Measurements were taken 1 hour after chemical dosing in a 96-well plate.NVS_GPCR_h5HT5A is one of one assay component(s) measured or calculated from the NVS_GPCR_h5HT5A assay. […] This assay endpoint, NVS_GPCR_h5HT5A, was analyzed in the positive analysis fitting direction relative to DMSO as the negative control and baseline of activity. […]
Records with an inconclusive call do not appear. Activity calls are given as the source filed them. How the source made its calls: active means hit-call score of the fitted dose curve at least 0.9, where 1 is the maximum; inconclusive means response in the unintended direction; inactive means score below 0.9.
Classes used: active, inactive

1. O=C(CCCCCCCCc1cccnc1)N1CCC(C=C(c2ccccc2)c2ccccc2)CC1 = inactive
2. Cc1[nH]cnc1C[C@H]1CCc2c(C)c3ccccc3n2C1=O = active
3. COc1cccc(-c2ccc(/C=C\CN3CCCCCC3)cc2Cl)c1 = active
4. Nc1ccc(Nc2ccccc2)cc1 = active

----------
System tested: Glycogen synthase kinase-3 beta (Homo sapiens) (UniProt P49841)
Sequence (P49841 whole entry, looked up): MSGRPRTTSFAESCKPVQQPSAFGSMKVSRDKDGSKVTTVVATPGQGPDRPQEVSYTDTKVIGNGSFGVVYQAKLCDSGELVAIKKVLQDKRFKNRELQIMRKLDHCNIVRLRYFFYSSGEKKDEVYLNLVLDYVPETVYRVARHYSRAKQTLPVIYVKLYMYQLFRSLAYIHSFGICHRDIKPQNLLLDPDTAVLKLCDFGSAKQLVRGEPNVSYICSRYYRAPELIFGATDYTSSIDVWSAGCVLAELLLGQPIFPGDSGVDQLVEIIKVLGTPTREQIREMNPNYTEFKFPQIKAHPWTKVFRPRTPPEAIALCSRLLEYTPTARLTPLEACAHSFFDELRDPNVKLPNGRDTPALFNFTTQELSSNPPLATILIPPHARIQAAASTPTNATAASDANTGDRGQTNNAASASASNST
Test details: NVS_ENZ_hGSK3b: NovaScreen (NVS) Enzymatic Assay for human Glycogen Synthase Kinase-3 beta (GSK3b) (AID 2283165)
Records with an inconclusive call do not appear. The source made the active and inactive calls. The calls were made as follows: active = hit-call score of the fitted dose curve at least 0.9, where 1 is the maximum; inconclusive = response in the unintended direction; inactive = score below 0.9.
Assay endpoint: AC50

1. CN(C)c1ccc(Cc2ccc(N(C)C)cc2)cc1 = inactive
2. O=C(OC[C@H]1O[C@@H](OC(=O)c2cc(O)c(O)c(OC(=O)c3cc(O)c(O)c(O)c3)c2)[C@H](OC(=O)c2cc(O)c(O)c(OC(=O)c3cc(O)c(O)c(O)c3)c2)[C@@H](OC(=O)c2cc(O)c(O)c(OC(=O)c3cc(O)c(O)c(O)c3)c2)[C@@H]1OC(=O)c1cc(O)c(O)c(OC(=O)c2cc(O)c(O)c(O)c2)c1)c1cc(O)c(O)c(OC(=O)c2cc(O)c(O)c(O)c2)c1 = 0.698 nM (active)
3. O=C1OC(=O)C2C3C=CC(C3)C12 (stereo not drawn) = inactive
